# targetOfAssay: hTRPA1 (Homo sapiens (Human), UniProt O75762)
# Sequence (O75762 whole entry): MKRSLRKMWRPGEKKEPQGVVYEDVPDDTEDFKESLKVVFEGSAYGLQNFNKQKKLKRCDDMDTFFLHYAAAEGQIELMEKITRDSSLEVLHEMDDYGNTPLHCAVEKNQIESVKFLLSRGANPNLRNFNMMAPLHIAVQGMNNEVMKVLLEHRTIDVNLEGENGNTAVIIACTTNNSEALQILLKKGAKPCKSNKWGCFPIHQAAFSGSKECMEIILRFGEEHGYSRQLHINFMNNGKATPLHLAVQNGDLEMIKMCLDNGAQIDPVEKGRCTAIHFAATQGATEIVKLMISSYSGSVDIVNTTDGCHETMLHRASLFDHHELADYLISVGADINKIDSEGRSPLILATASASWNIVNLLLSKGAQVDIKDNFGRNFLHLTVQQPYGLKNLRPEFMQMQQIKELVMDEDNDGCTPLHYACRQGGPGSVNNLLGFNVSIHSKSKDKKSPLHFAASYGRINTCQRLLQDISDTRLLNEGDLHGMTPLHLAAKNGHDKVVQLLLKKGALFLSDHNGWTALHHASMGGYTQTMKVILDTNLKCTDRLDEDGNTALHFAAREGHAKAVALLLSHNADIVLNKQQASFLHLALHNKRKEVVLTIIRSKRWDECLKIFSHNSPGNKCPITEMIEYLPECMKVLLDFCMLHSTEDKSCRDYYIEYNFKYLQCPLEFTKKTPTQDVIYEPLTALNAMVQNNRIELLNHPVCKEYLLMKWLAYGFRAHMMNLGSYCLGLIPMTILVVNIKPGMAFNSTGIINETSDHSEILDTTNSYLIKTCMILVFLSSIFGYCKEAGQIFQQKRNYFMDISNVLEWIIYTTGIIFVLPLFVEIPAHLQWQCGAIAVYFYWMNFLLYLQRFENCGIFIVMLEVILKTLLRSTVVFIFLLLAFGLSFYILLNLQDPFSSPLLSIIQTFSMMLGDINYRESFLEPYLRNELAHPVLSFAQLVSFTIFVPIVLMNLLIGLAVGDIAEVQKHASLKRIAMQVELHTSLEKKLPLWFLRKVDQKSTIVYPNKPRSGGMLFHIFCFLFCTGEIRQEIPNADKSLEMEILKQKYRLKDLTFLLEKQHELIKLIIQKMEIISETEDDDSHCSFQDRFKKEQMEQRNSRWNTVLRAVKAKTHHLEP
# measurementNotes: IC50 determination on human TRPA1 channel, Hamamatsu FDSS calcium fluorescence, CHO cells
# Format: cell-based
# testSettings: CHO cells expressing human TRPA1; block of cinnamaldehyde induced calcium influx; Hill coefficient fixed to 1.5; read-out: hTRPA1 AUC IC50
# Procedure: IC50s (effective concentration) of compounds on the human TRPA1 channel were determined using a Hamamatsu FDSS fluorescence plate reader. […] The assay buffer was Hank's Balanced Salt Solution (HBSS) containing 20 mM HEPES (pH readjusted to 7.4) along with 0.02% BSA. Following dye load and plate cool down, compounds were added to the cells using the FDSS while monitoring fluorescence to determine whether any of the test compounds have TRPA1 agonist activity. […]
observable: pIC50
// pIC50 here means minus log10 of the molar concentration (mol/L)

Suppose we examine the molecule `CC(C)N(CC(=O)NCc1cc(N2CCC(F)(F)CC2)ncn1)S(=O)(=O)c1ccc(F)cc1` ; what pIC50 value has been reported? 5.52

And then `CC(C)N(CC(=O)NCc1cc(N2CCC(C(F)(F)F)CC2)ncn1)S(=O)(=O)c1ccc(F)cc1` , what is it? 6.60

And then `CC(C)N(CC(=O)NCc1cccc(C2CC2)c1)S(=O)(=O)c1ccc(F)cc1` , what is it? 6.00

And then CC(C)N(CC(=O)NCc1cccc(-c2cnc(N3CCC[C@H]3C)nc2)c1)S(=O)(=O)c1ccc(F)cc1 (single isomer, unassigned) [79-(R)] , what is it? 7.26

And then CC(C)N(CC(=O)NCc1cccc(-c2cnc(N3CCC[C@@H]3C)nc2)c1)S(=O)(=O)c1ccc(F)cc1 (single isomer, unassigned) [79-(S)] , what is it? 7.42
